Overview of recorded mass density for various compounds
Details: 298.15 K; 101.33 kPa; Liquid
Express your answer in kg/m3, writing the number without its unit.

CCO | 785.125

[in] Query: mass density; subject: CC#N
[out] 776.6

[in] Looking for the measured mass density of CC(C)O , can you help?
[out] 780.804

[in] Which mass density reading was recorded for the compound CC(C)=O ?
[out] 784.233

[in] # get_value(readout='mass density', item= CO )
[out] 786.71

====

Conditions: 298.15 K; 101.33 kPa; Liquid; Sing-around technique in a fixed-path interferometer
Value Type: speed of sound (m/s)
Number in m/s, nothing else.

Worked cases, answers included:
CC#N | 1279.2
CCO | 1143.4
CC(C)=O | 1161.7
CC(C)O | 1139.1

Attention now shifts to the item below.
[in] Look up speed of sound for this compound: CO
[out] 1108.5

Each recorded value in this set is attributed to the NIST ThermoML archive (doi:10.1016/j.jct.2007.04.006).
